Recorded percentage of input scFv antibody bound by entry
Target: T1, human glycophorin A on human red blood cells or red blood cell membranes (human, UniProt P02724 20-150)
T1 construct: whole, on cells; also called hRBC; human RBC membranes
T1 sequence (looked up): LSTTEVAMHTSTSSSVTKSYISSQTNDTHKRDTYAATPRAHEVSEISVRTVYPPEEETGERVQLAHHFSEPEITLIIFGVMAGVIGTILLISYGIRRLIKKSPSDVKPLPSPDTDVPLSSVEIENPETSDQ
Assay: scFv on intact human RBC, unbound scFv by ELISA; 20 min after 200-fold dilution

binder | unit abbreviation | percentage of input scFv antibody bound
TPP-7795 scFv with C-terminal 6xHIS tag (scFv) scFv: DIQLTQSPSFLSASVGDRVTITCRASSSVSYIYWFQQKPGKAPKLLIYATSFLQSGVPSRFSGSGSGTEYTLTISSLQPEDFATYYCHQRNSFPYTFGQGTKLEIKGGGGSGGGGSGGGGSGGGGSEVQLVQSGAEVKKPGASVKVSCKASGYTFTTYTIHWVRQAPGQGLEWMGYINPKSGWTRYNPKFKGRVTMTRDKSTSTAYMELRSLRSDDTAVYYCQTGTRDYWGQGTTVTVSSHHHHHH | % | 82
TPP-7797 scFv with C-terminal 6xHIS tag (scFv) scFv: DIQLTQSPSFLSASVGDRVTITCRASSSVRYIYWFQQKPGKAPKLLIYATSFRQSGVPSRFSGSGSGTEYTLTISSLQPEDFATYYCHQRNSFPYTFGQGTKLEIKGGGGSGGGGSGGGGSGGGGSEVQLVQSGAEVKKPGASVKVSCKASGYTFTTYTIHWVRQAPGQGLEWMGYINPSSGYTRYNPKFKGRVTMTRDKSTSTAYMELRSLRSDDTAVYYCWTGRRDYWGQGTTVTVSSHHHHHH | % | 98
